- System: 7G8
- procedure-summary: qHTS profiling for inhibitors of Plasmodium falciparum proliferation (AID 504749); also: nearly all actives have a fitted effect of over 60% in size
- run-conditions: P. falciparum in erythrocytes, SYBR Green DNA, 72 h; series mostly up to 28.7 µM
Inconclusive results are not listed. Calls of active or inactive are those of the source. Calls follow the shape of the dose curve; as a rule, active = well fitted inhibition curve with a large enough effect; inconclusive = small, poorly fitted or top-dose-only effect; inactive = flat fitted curve, though single readings scatter.
Labels: Y for active, N for inactive

- COC(=O)C1=C(C)NC(C)=C(C(=O)OCCN2CCN(C(c3ccccc3)c3ccccc3)CC2)C1c1cccc([N+](=O)[O-])c1 (centres undefined): Y
- O=c1[nH]c(=O)n(C2CCCO2)cc1F (centres undefined): N
- Nc1ccc(S(=O)(=O)Nc2ncccn2)cc1: N
- Nc1ccn([C@@H]2CS[C@H](CO)O2)c(=O)n1: N
